Target: PRMT5 (Homo sapiens)
Construct: purchased Viva (custom protein)
Assay: PRMT5 biochemical IC50 assay with MTA as cofactor
Conditions: PRMT5, MTA as cofactor; read-out: MTA IC50
pIC50: −log10 of the molar value.
Catalogue of molecules with associated pIC50
measured_property: pIC50

molecule	experimental_target	value_observed
Cc1cc(NC(=O)C(=O)N2C[C@H](C)CC[C@H]2c2cccs2)cnc1N (single isomer, unassigned)	PRMT5 (Homo sapiens)	> 7.30
COc1ncc(NC(=O)C(=O)N2C[C@@H](C)CC[C@@H]2c2cc(Cl)cc(Cl)c2)cc1C(N)=O (single isomer, unassigned)	PRMT5 (Homo sapiens)	> 7.30
COc1ncc(NC(=O)C(=O)N2C[C@@H](C)CC[C@@H]2c2ccc3sc(C4CC5(C4)CN(C)C5)nc3c2)cc1C(N)=O	PRMT5 (Homo sapiens)	> 7.30
Cc1cc(NC(=O)C(=O)N2C[C@H](C)CC[C@H]2C2CCCC2)cnc1N (racemic)	PRMT5 (Homo sapiens)	> 7.30
Cc1cc(NC(=O)C(=O)N2C[C@@H](C)CC[C@@H]2c2cc(F)cc(Cl)c2)cnc1N (single isomer, unassigned)	PRMT5 (Homo sapiens)	6.30 to 7.30
C[C@@H]1CC[C@@H]([C@H]2CC[C@H](O)CC2)N(C(=O)C(=O)Nc2cncc(C(N)=O)c2)C1 (single isomer, unassigned)	PRMT5 (Homo sapiens)	< 6.30
C[C@H]1CC[C@H](c2cn[nH]c2)N(C(=O)C(=O)Nc2cncc(C(N)=O)c2)C1 (single isomer, unassigned)	PRMT5 (Homo sapiens)	> 7.30
CCc1cc(NC(=O)C(=O)N2C[C@@H](C)CC[C@@H]2c2ccc3sc([C@H]4CCN(C)C(C)(C)C4)nc3c2)cnc1N (single isomer, unassigned) [Compound 1129]	PRMT5 (Homo sapiens)	> 7.30
CCc1cc(NC(=O)C(=O)N2C[C@H](C)CC[C@H]2c2ccc3[nH]cnc3c2)cnc1N (single isomer, unassigned)	PRMT5 (Homo sapiens)	< 6.30
CCc1cc(NC(=O)C(=O)N2C[C@@H](C)CC[C@@H]2c2ccc3sc(CCN4CCCC4)nc3c2)cnc1N	PRMT5 (Homo sapiens)	> 7.30

---

Catalogue of molecules with associated IC50
Molecular target: PRMT5 (Homo sapiens, UniProt O14744)
Construct: purchased Viva (custom protein)
Sequence (O14744 whole entry): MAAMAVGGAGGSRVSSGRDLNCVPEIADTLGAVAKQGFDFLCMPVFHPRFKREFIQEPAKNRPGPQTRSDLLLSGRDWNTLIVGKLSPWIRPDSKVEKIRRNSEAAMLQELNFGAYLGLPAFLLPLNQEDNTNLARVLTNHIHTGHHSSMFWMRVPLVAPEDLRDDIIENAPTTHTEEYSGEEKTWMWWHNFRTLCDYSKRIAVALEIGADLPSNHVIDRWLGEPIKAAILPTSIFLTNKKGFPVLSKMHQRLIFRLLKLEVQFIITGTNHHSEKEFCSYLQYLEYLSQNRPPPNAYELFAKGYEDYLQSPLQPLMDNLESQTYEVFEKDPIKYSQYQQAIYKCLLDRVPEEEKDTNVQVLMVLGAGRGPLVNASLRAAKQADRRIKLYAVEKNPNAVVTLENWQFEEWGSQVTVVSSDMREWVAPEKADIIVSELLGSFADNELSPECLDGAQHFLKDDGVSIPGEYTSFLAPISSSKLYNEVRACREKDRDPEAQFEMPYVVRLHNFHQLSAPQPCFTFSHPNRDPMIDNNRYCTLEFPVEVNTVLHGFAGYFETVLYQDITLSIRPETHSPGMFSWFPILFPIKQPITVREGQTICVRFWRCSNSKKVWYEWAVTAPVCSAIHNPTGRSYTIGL
Sequence (Q9BQA1 whole entry partner): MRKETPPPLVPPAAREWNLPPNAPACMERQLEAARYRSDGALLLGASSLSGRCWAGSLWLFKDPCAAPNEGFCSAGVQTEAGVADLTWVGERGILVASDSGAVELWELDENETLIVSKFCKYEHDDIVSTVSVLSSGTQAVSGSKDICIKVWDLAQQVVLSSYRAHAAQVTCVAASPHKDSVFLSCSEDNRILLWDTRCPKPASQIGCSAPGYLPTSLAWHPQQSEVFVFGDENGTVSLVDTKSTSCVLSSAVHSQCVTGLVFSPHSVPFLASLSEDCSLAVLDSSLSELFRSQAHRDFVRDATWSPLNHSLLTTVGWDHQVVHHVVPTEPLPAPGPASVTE
Test: PRMT5 biochemical IC50 assay with MTA as cofactor
Details: PRMT5, MTA as cofactor; read-out: MTA IC50

molecule	IC50
Cc1cc(NC(=O)C(=O)N2CCCC[C@H]2c2ccc3[nH]ncc3c2)cnc1N (single isomer, unassigned)	< 50 nM
Cc1cc(NC(=O)C(=O)N2C[C@@H](C)CC[C@@H]2c2cccc3[nH]ncc23)cnc1N (single isomer, unassigned)	> 500 nM
Cc1cc(NC(=O)C(=O)N2C[C@@H](C)CC[C@@H]2c2ccc(N)nc2)cnc1N (single isomer, unassigned)	> 500 nM
Cc1cc(NC(=O)C(=O)N2CC[C@H](N(C)C)C[C@H]2c2ccccc2)cnc1N (racemic)	50 to 500 nM
CCc1cc(NC(=O)C(=O)N2C[C@H](C)CC[C@H]2c2ccc3sc(C(F)(F)F)nc3c2)cnc1N (single isomer, unassigned)	> 500 nM
Cc1cc([C@H]2CC[C@H](C)CN2C(=O)C(=O)Nc2cnc(N)c(C)c2)ccn1 (single isomer, unassigned)	> 500 nM
Cc1cc(NC(=O)C(=O)N2C[C@@H](C)CC[C@@H]2c2ccc3sc(C4CCN(CC(F)F)CC4)nc3c2)cnc1N	< 50 nM
CCc1cc(NC(=O)C(=O)N2C[C@@H](C)CC[C@@H]2c2ccc(F)cc2)cnc1C	< 50 nM
C[C@H]1CCC(c2ccc3sc(C4CCOCC4)nc3c2)N(C(=O)C(=O)Nc2cnc(N)c(C3CC3)c2)C1 (single isomer, unassigned)	< 50 nM
COc1ncc(NC(=O)C(=O)N2C[C@@H](C)CC[C@@H]2c2cc(F)c(F)c(F)c2)cc1C(N)=O (single isomer, unassigned)	> 500 nM
CCc1cc(NC(=O)C(=O)N2C[C@@H](C)CC[C@@H]2c2cc(Cl)cc(Cl)c2)cnc1N (single isomer, unassigned)	< 50 nM
CC[C@@H]1CC[C@@H](c2cn[nH]c2)N(C(=O)C(=O)Nc2cnc(N)c(C)c2)C1 (racemic)	50 to 500 nM
